Data provenance: the nanobody polyreactivity screen of Harvey et al. (2022)

- Protocol text: yeast display, Sf9 membrane polyspecificity reagent, FACS + sequencing; frameworks hold sequencing errors
Test readout: polyreactivity (PSR sort gate)

Here is how some sequences turned out for polyreactivity (PSR sort gate).
Please look up its polyreactivity (PSR sort gate): QDQLVESGGGLVQAGGSLRLSCAASGSIFVSYTMGWYRQAPGKERELVAAITRSGGSTYYADSVKGRFTISRDNAKNTVYLQLNSLKPEDTAVYYCNATPANKYYRSTRGYAYNYWGQGTQVTVSS
low polyreactivity

Try QVQLVESGGGLVQARGSLRLSSAPSGRTFTVYAMGWYRHARGKERELVAAIRRTGSTYYADSVKGRFTISRDNAKNTVYLQMNSLKPEDTAVYYCYARPSTGWSIYGVDYWGQGTQGTVSS next.
low polyreactivity

QVQLVESGGGLVQAGGSLRLICAASGFTFASYGMGWYRQARGKERELVAAISWSGGRTYYADSVKGRFTISRDNATNTVYLQMNSLKPEDSAVYYSNAYWNPASKYDYWGQGTQVTVSS ?
high polyreactivity

Now consider QVQLQESGDGLVQAGGSLRLSSAASGTIFSDYGMGGYRQAPGKERELLAGISDGCNTNYTDSVKGRFTISRDNAHRVSADEQPETGGYRGVLLRGSERWLLFYVYWGQGTQVTVSS and answer again.
high polyreactivity

QVQLVESGGGLVQAGGSLRLSCAASGSTFGRYAMGWYGQAPGKERELVAAISASGASTYYADSVKGRFTISRDNAKNTVYLQMNSLKPEDTAVYYSNAPYYFAGKPWGSWRYGYWGQGTQVTVSS ?
low polyreactivity

Switching to the query record.
Bench note: what polyreactivity (PSR sort gate) did QVQLVESGGGLVQAGGSLRLSSAASGYIFGANGMGWYRQAPGKERELVATITSGGRTYYADSVKGRFTISRDNAKNNVYLQMNSLKPEDTAVYYCAAKLQYRWTWGYYYWGQGTQVTVSS show?
high polyreactivity

* * *

- Protocol text: yeast display, Sf9 membrane polyspecificity reagent, FACS + sequencing; frameworks hold sequencing errors
Test readout: polyreactivity (PSR sort gate)

# annotated cases, reported polyreactivity (PSR sort gate) shown
Recorded polyreactivity (PSR sort gate) of QVQLVESGGGLVQAGGSLRLSCAASGIILYVNAMGCYRQAPGKEREFVAAISWGGGSTYYADSVKGRFTISRDNAKNTVYLQMNSLKREDTAVYYCAAEFWSGYPTYTYDYWGQGTQVTVSS , please.
low polyreactivity

Proceed to QVQVVESGGGLDQAGGSLGLSCAASGSIFIKYAMGWSRQAPRKERELVAAISRRGGSPYYADSVKGRFTISRDNAKNTVYLQMISLKPEDTAVYYCAAVNISFGYADRFYYVYRGDYWGQGTQVTVSS
high polyreactivity

QVQLVESGGGLVQAGGSLRLSCAASGRTFAVNGKGWYRPAPGKERELVAAISSGGSTNYADSVKARFTISRDNAKNTVYLQLNSLKPEDTAVYYCAADYTRAHISYYYWGQGTQVTVSS ?
high polyreactivity

Item: QVQLVESGLGLVQAGGSLRLSCAASGSTFSNNAMGWYRQAPGKERELVASITRSGGSTYYADTVKGRFTISRDNAKNTVYLQMNSLKPEDTAVYYCNADGYYDYDYGEWGQGTQVTGSS
low polyreactivity

Consider now this further sequence.
State the recorded polyreactivity (PSR sort gate) for this entry: QVQLLESRGGLVQAGGSLRLSCAASGRTIYTYAMGWYRQAPRTVRELVAAITYRGGNTYYADSVKGRFTISRDNAKYTVYLQMNSLKAEDTAVYDCIRRVAYLSGYSYDYWGQGTQVTVSS
high polyreactivity
